value.kind: intrinsic clearance, human liver microsomes (mL/min/kg)

COc1cc2ncnc(Nc3cccc(O)c3)c2cc1OC = 22
Cc1nc(C)c(CNc2cnn(-c3ccccc3)c2)s1 = 14.2
COc1ccc2nc(C)nc(N3CC(O)(c4ccc(F)cc4)C3)c2c1 = 26.9
Cc1cnccc1NC(=O)COc1ccccc1C#N = 12.2
O=C(NCCN1CCC(O)(c2cccc(F)c2)CC1)c1cccc(F)c1 = 9.11

a. CO[C@H]1CC[C@@H](C(=O)c2ccc3nc4c(cc3c2)CCCO4)CC1
b. CC1(c2nnc(-c3cc(-c4ccccc4)n[nH]3)o2)CCOCC1
c. COc1ccccc1C(=O)NCc1nc(C)cc(N2CCCCC2)n1
d. COc1ccc(-c2cccc(C3CCCN(C(=O)C4CCCC4)C3)n2)cc1 (stereo not given)
e. Cn1cc(Nc2nccc(N3CC4CCC(C3)N4C(=O)[C@@H]3CC3(F)F)n2)cn1
[ask] Ordering: ascending intrinsic clearance, human liver microsomes. Please list each label once, in the requested order.
[reply] e, b, a, c, d
(e: 7.26 mL/min/kg, b: 13.5 mL/min/kg, a: 29.4 mL/min/kg, c: 96.3 mL/min/kg, d: 175 mL/min/kg)

====

value.kind: intrinsic clearance, rat liver microsomes (mL/min/kg)

Nc1nc2ccccc2n1CCCc1ccccc1 = 463
Cc1nc(-c2cnn(C)c2-c2ccc(C(F)(F)F)cn2)c2c(N3CCC3)ncnn12 = 294
Cc1ccc(-c2nnc(SCCn3cccn3)[nH]2)cc1 = 302
CCc1noc(-c2ccc(CCN)cc2)n1 = 54.5
Cn1ccnc1CN1CCN(Cc2ccc(F)cc2C#N)CC1 = 446
Cc1nccc(C2CCN(Cc3ncc[nH]3)CC2)n1 = 28.9

I. CC(=O)NCCOc1ccc2ccccc2n1
II. O=C(NCCN1CCc2ccccc2C1=O)c1ccon1
[ask] Sorting by intrinsic clearance, rat liver microsomes in descending order, would I or II appear first? Indicate your choice by writing its label.
[reply] I

I. Cc1nc(O)cc(C2CCN(c3cnccn3)CC2)n1
II. c1ccc(Oc2cccc(CN(CCN3CCOCC3)Cc3cccnc3)c2)cc1
III. O=C(Nc1ccc(C(F)(F)F)cc1)c1ccccn1
IV. Cc1noc(C)c1N(C)CCn1cncn1
[ask] Ordering: ascending intrinsic clearance, rat liver microsomes. Please list each label once, in the requested order.
[reply] I, IV, III, II
(I: 20.1 mL/min/kg, IV: 38.4 mL/min/kg, III: 165 mL/min/kg, II: 3870 mL/min/kg)

====

value.kind: intrinsic clearance, human liver microsomes (mL/min/kg)

These solved cases illustrate the format of a correct answer.
CON(C)C(=O)c1cccc2c(C)c(C)[nH]c12 = 113
O=C(NCCc1ccc2c(c1)OCO2)Nc1ccncc1 = 8.32
O=C(CN1CCCC(c2cncc(-c3cccc(Cl)c3)n2)C1)N1CCCC1 (stereo unspecified) = 86.6

P. Cc1cn(CCN2CCN(c3ccccc3-c3cc(C#N)cc(C(=O)NCCCN4CCCC4)c3)CC2)c2ccccc12
Q. COc1ccc2c(c1)CC[C@@H]1[C@@H]2CC[C@]2(C)[C@@H](NCCCCCCN3C(=O)C=CC3=O)CC[C@@H]12
R. COC(=O)c1c(C)[nH]c(C(=O)OCC(=O)N(C)Cc2cccs2)c1C
[ask] Ordering: ascending intrinsic clearance, human liver microsomes. Please list each label once, in the requested order.
[reply] Q, R, P
